tested on: Raji; assay: Inhibition of TPA-induced EBV-early antigen activation in human Raji cells at 3.2 […] after 48 hrs relative to control; format: cell-based; design: scale not given: the % may be the effect or the level left; conditions: human gammaherpesvirus 4
This section presents compounds with their documented Activity values.
# unit: % | format: bare number

Consider the reported Activity for these compounds:
{"columns": ["smiles-entry", "Activity (%)"],
 "data": [
  ["Cc1cc2c(cc1O)[nH]c1ccc3c(c12)C=CC(C)(C)O3", 73.7],
  ["COc1cccc2c(=O)c3ccoc3n(C)c12", 79.5],
  ["Cn1c(Cc2ccccc2)nc(=O)c2ccccc21", 75.6],
  ["COc1ccc2[nH]c3cc(O)c(C)cc3c2c1CC=C(C)C", 68.7],
  ["COc1cc2c(c(O)c1OC)c(=O)c1ccccc1n2C", 74.3]
]}

Now take the following compound into account.
// Activity value for COc1ccc2[nH]c3cc(OC)c(C)cc3c2c1 : 76

* * *

# Activity per record follows
test system: Raji; experiment: Inhibition of TPA-induced EBV-early antigen activation in human Raji cells at 16 […] after 48 hrs relative to control; assay type: cell-based; parameters: scale not given: the % may be the effect or the level left; details: human gammaherpesvirus 4
Just the number in %, nothing appended.

Some solved cases for reference:
{"columns": ["smiles-entry", "test-target", "measurement-name", "endpoint-value"],
 "data": [
  ["COc1ccc2[nH]c3cc(OC)c(C)cc3c2c1", "Raji", "Activity", 51.3],
  ["COc1cc2c(c(O)c1OC)c(=O)c1ccccc1n2C", "Raji", "Activity", 39.6],
  ["CC(C)=CCc1c(O)ccc2[nH]c3cc(O)c(C)cc3c12", "Raji", "Activity", 45.6],
  ["Cn1c(Cc2ccccc2)nc(=O)c2ccccc21", "Raji", "Activity", 40.4],
  ["Cc1cc2c(cc1O)[nH]c1ccc3c(c12)C=CC(C)(C)O3", "Raji", "Activity", 49.1]
]}

Next:
Field Activity (system: Raji) for entry COc1ccc2[nH]c3cc(O)c(C)cc3c2c1CC=C(C)C = 46.7

* * *

tested on: Raji; experiment: Inhibition of TPA-induced EBV-early antigen activation in human Raji cells at 32 […] after 48 hrs relative to control; format: cell-based; parameters: scale not given: the % may be the effect or the level left; details: human gammaherpesvirus 4
measurement-name: Activity
Could you kindly put the unit after your number?

Known Activity results, listed for orientation:
{"columns": ["molecule", "test-target", "Activity"],
 "data": [
  ["COc1ccc2[nH]c3cc(OC)c(C)cc3c2c1 [GLYCOZOLIDINE]", "Raji", "24.3%"],
  ["Cn1c(Cc2ccccc2)nc(=O)c2ccccc21 [ARBORINE]", "Raji", "12.7%"]
]}

Lab book: Activity of Cc1cc2c(cc1O)[nH]c1ccc3c(c12)C=CC(C)(C)O3 [GLYCOBORININE] noted as 17.4%

Input CC1=C(/C=C/C(C)=C/C=C/C(C)=C/C=C/C=C(C)/C=C/C=C(C)/C=C/C2=C(C)CCCC2(C)C)C(C)(C)CCC1 [BETA CAROTENE] . Output Activity: 9.1%

Activity reading for COc1c2ccoc2nc2c(OC)cccc12 [GAMMA-FAGARINE] : 15.4%

Activity recorded for this molecule, COc1cc2c(c(O)c1OC)c(=O)c1ccccc1n2C [ARBORININE] , is 2.7%

Entry COc1cccc2c(=O)c3ccoc3n(C)c12 ; Activity = 19.9%

Memo: COc1ccc2[nH]c3cc(O)c(C)cc3c2c1CC=C(C)C [GLYBOMINE B] , reported Activity: 15.3%

Value of measured Activity for the entry CC(C)=CCc1c(O)ccc2[nH]c3cc(O)c(C)cc3c12 [GLYBOMINE C] : 13.4%

Per the record, Cn1c2ccccc2c(=O)c2ccoc21 [ISODICTAMNINE] has Activity of 18.4%

* * *

Readings of Activity for the listed compounds
tested on: Raji; experiment: Cytotoxicity against human Raji cells at 3.2 […] after 48 hrs by trypan blue staining method; format: cell-based

{"columns": ["smiles-entry", "test-target", "measurement-name", "endpoint-value"],
 "data": [
  ["CC1=C(/C=C/C(C)=C/C=C/C(C)=C/C=C/C=C(C)/C=C/C=C(C)/C=C/C2=C(C)CCCC2(C)C)C(C)(C)CCC1", "Raji", "Activity", "> 80%"],
  ["Cc1cc2c(cc1O)[nH]c1ccc3c(c12)C=CC(C)(C)O3", "Raji", "Activity", "> 80%"],
  ["COc1cc2c(c(O)c1OC)c(=O)c1ccccc1n2C", "Raji", "Activity", "> 80%"]
]}

# input for lookup
Short answer for COc1ccc2[nH]c3cc(O)c(C)cc3c2c1CC=C(C)C : Activity was > 80%

* * *

# Activity listing for each entry below
test system: Raji; test: Inhibition of TPA-induced EBV-early antigen activation in human Raji cells at 3.2 […] after 48 hrs relative to control; assay type: cell-based; set-up: scale not given: the % may be the effect or the level left; details: human gammaherpesvirus 4
The figure you give is taken to be in %; do not add the unit.

Solved entries (count: 2):
{"columns": ["smiles-entry", "u", "Activity"],
 "data": [
  ["COc1c2ccoc2nc2c(OC)cccc12", "%", 77.7],
  ["Cn1c2ccccc2c(=O)c2ccoc21", "%", 72.2]
]}

Please find the next molecule below.
So the reported Activity for CC(C)=CCc1c(O)ccc2[nH]c3cc(O)c(C)cc3c12 , on Raji, turned out to be 68.9

* * *

tested on: Raji; experiment: Inhibition of TPA-induced EBV-early antigen activation in human Raji cells at 16 […] after 48 hrs relative to control; format: cell-based; parameters: scale not given: the % may be the effect or the level left; settings: human gammaherpesvirus 4
measurement-name: Activity (%)
// return numeric value only (unit: %, not printed)

{"columns": ["compound", "endpoint-value"],
 "data": [
  ["COc1c2ccoc2nc2c(OC)cccc12 [GAMMA-FAGARINE]", 38.2]
]}

Item: COc1cccc2c(=O)c3ccoc3n(C)c12 | Activity: 40.5

Quick note, Activity for Cn1c2ccccc2c(=O)c2ccoc21 [ISODICTAMNINE] landed at 40.3
